# Test system: Staphylococcus epidermidis
# Method Notes: Antibacterial activity against Staphylococcus epidermidis after 24 hrs micro dilution assay
# Assay type: functional
# Test Settings: Staphylococcus epidermidis, 24 h; read-out: MIC
Readout Name: MIC (µg/mL)

Consider the following illustrative entries.
| Compound | Output Unit | MIC |
| --- | --- | --- |
| Cl.Clc1cccc(CN[C@H]2CCCC[C@@H]2NCc2cccc(Cl)c2)c1 (racemic) | µg/mL | 0.032 |
| Brc1cccc(CN[C@H]2CCCC[C@@H]2NCc2cccc(Br)c2)c1.Cl | µg/mL | 0.032 |
| Cl.FC(F)(F)c1ccc(CN[C@H]2CCCC[C@@H]2NCc2ccc(C(F)(F)F)cc2)cc1 | µg/mL | 0.032 |

1: Cc1cccc(CNC2CCCCC2NCc2cccc(C)c2)c1.Cl (stereo not given)
2: Cl.FC(F)(F)c1cccc(CNC2CCCCC2NCc2cccc(C(F)(F)F)c2)c1 (stereo not given)
Of 1 and 2 , which carries the smaller reported MIC figure? Lab note: record the label of whichever item you select.
2
